test system: Hep G2; assay: MTT cytotoxicity assay on Hep G2 cell line; type: cell-based; conditions: human, 24 h, 12.5 μM
Please go through the items and note down their Percentage of viable cells after treatment.
Answers are plain numbers, in %.

CC[C@H]1OC(=O)[C@H](C)[C@@H](O[C@H]2C[C@@](C)(OC)[C@@H](O)[C@H](C)O2)[C@H](C)[C@@H](O[C@@H]2O[C@H](C)C[C@H](N(C)C)[C@H]2O)[C@](C)(OC)C[C@@H](C)C(=O)[C@H](C)[C@@H](O)[C@]1(C)O [Clarithromycin, clarithromycin, reference compound]	100
CC[C@H]1OC(=O)[C@H](C)[C@@H](O[C@H]2C[C@@](C)(OC)[C@@H](O)[C@H](C)O2)[C@H](C)[C@@H](O[C@@H]2O[C@H](C)C[C@H](N(C)C)[C@H]2O)[C@](C)(O)C[C@@H](C)CN(C(=S)Nc2ccccc2F)[C@H](C)[C@@H](O)[C@]1(C)O	100

List reported Percentage of viable cells after treatment for each of these compounds:
1. CC[C@H]1OC(=O)[C@H](C)[C@@H](O[C@H]2C[C@@](C)(OC)[C@@H](O)[C@H](C)O2)[C@H](C)[C@@H](O[C@@H]2O[C@H](C)C[C@H](N(C)C)[C@H]2O)[C@](C)(O)C[C@@H](C)CN(C)[C@H](C)[C@@H](O)[C@]1(C)O [Azithromycin, azithromycin, reference compound]
2. CC[C@H]1OC(=O)[C@H](C)[C@@H](O[C@H]2C[C@@](C)(OC)[C@@H](O)[C@H](C)O2)[C@H](C)[C@@H](O[C@@H]2O[C@H](C)C[C@H](N(C)C)[C@H]2O)[C@](C)(O)C[C@@H](C)CN(C(=O)Nc2ccc(C(F)(F)F)cc2)[C@H](C)[C@@H](O)[C@]1(C)O
3. CC[C@H]1OC(=O)[C@H](C)[C@@H](O[C@H]2C[C@@](C)(OC)[C@@H](O)[C@H](C)O2)[C@H](C)[C@@H](O[C@@H]2O[C@H](C)C[C@H](N(C)C)[C@H]2O)[C@](C)(O)C[C@@H](C)CN(C(=O)NC(C)c2cccc3ccccc23)[C@H](C)[C@@H](O)[C@]1(C)O (some centres unmarked)

1. 100
2. 92
3. 93

###

Tested on: IL-8
Assay: Inhibition of IL-8 production by stimulated human peripheral blood leukocytes in vitro
Assay type: cell-based
Details: PBL, LPS stimulated, compound 10 μM
Procedure: Test substances used in in vitro experiments were dissolved in dimethyl sulfoxide (DMSO) (Kemika, Croatia) at concentrations of 50 mM and 10 mM, and were further diluted to final concentrations of 50 μM and 10 μM in 1 mL Dulbecco's modified Eagle medium (DMEM) supplemented with 1% heat inactivated fetal bovine serum (FBS), 1% L-glutamine, 50 U/ml penicillin, 50 μg/ml streptomycin and 2.5 μg/mL Fungizone (amphotericin B). […]
We use 50% as the dividing line for Percentage of inhibition of IL-8 production: on or above the line is 1, below is -1.

A selection of reference data follows.
CC[C@H]1OC(=O)[C@H](C)C2O[C@@](C)(C[C@@H](C)CN(C(=O)NCc3ccccc3)[C@H](C)[C@@H](O)[C@]1(C)O)[C@H](O[C@@H]1O[C@H](C)C[C@H](N(C)C)[C@H]1O)[C@H]2C	-1
CCC1OC(=O)C(C)C(OC2CC(C)(OC)C(O)C(C)O2)C(C)C(OC2OC(C)CC(N(C)C)C2O)C(C)(O)CC(C)CN(C(=S)Nc2ccc(Cl)cc2)C(C)C(O)C1(C)O (stereo not drawn)	1
CC[C@H]1OC(=O)[C@H](C)[C@@H](O[C@H]2C[C@@](C)(OC)[C@@H](O)[C@H](C)O2)[C@H](C)[C@@H](O[C@@H]2O[C@H](C)C[C@H](N(C)C)[C@H]2O)[C@](C)(O)C[C@@H](C)CN(C(=O)Nc2ccc(Cl)c(C(F)(F)F)c2)[C@H](C)[C@@H](O)[C@]1(C)O	1
CCC1OC(=O)C(C)C(O)C(C)C(OC2OC(C)CC(N(C)C)C2O)C(C)(O)CC(C)CN(C(=S)NCc2ccccc2)C(C)C(O)C1(C)O (stereo not drawn)	-1
CC[C@H]1OC(=O)[C@H](C)[C@@H](O)[C@H](C)[C@@H](O[C@@H]2O[C@H](C)C[C@H](N(C)C)[C@H]2O)[C@](C)(O)C[C@@H](C)CN(C(=O)NCc2ccccc2)[C@H](C)[C@@H](O)[C@]1(C)O	-1

Does Percentage of inhibition of IL-8 production meet or surpass 50% for `CC[C@H]1OC(=O)[C@H](C)[C@@H](O[C@H]2C[C@@](C)(OC)[C@@H](O)[C@H](C)O2)[C@H](C)[C@@H](O[C@@H]2O[C@H](C)C[C@H](N(C)C)[C@H]2O)[C@](C)(O)C[C@@H](C)CN(C(=S)Nc2ccc(Br)cc2)[C@H](C)[C@@H](O)[C@]1(C)O` ?
-1

###

test system: human peripheral blood mononuclear cells (PBMC); assay: Human T-cell proliferation in vitro (3H-thymidine incorporation); format: cell-based; details: Homo sapiens, PBMC, PHA stimulated, compound 10 μM; read-out: Percentage of inhibition of proliferation of stimulated PBMC
Readout Type: inhibition at 10 µM
Give the value; after it, write the unit.

CC[C@H]1OC(=O)[C@H](C)[C@@H](O[C@H]2C[C@@](C)(OC)[C@@H](O)[C@H](C)O2)[C@H](C)[C@@H](O[C@@H]2O[C@H](C)C[C@H](N(C)C)[C@H]2O)[C@](C)(O)C[C@@H](C)CN(C)[C@H](C)[C@@H](O)[C@]1(C)O [Azithromycin, azithromycin, reference compound]	5%
CC[C@H]1OC(=O)[C@H](C)[C@@H](O[C@H]2C[C@@](C)(OC)[C@@H](O)[C@H](C)O2)[C@H](C)[C@@H](O[C@@H]2O[C@H](C)C[C@H](N(C)C)[C@H]2O)[C@](C)(OC)C[C@@H](C)C(=O)[C@H](C)[C@@H](O)[C@]1(C)O [Clarithromycin, clarithromycin, reference compound]	0%
CC[C@H]1OC(=O)[C@H](C)[C@@H](O[C@H]2C[C@@](C)(OC)[C@@H](O)[C@H](C)O2)[C@H](C)[C@@H](O[C@@H]2O[C@H](C)C[C@H](N(C)C)[C@H]2O)[C@](C)(O)C[C@@H](C)CN(C(=S)Nc2cccc(Br)c2)[C@H](C)[C@@H](O)[C@]1(C)O [Compound 6]	0%
CC[C@H]1OC(=O)[C@H](C)[C@@H](O)[C@H](C)[C@@H](O[C@@H]2O[C@H](C)C[C@H](N(C)C)[C@H]2O)[C@](C)(O)C[C@@H](C)CN(C(=O)Nc2cccc(C(F)(F)F)c2)[C@H](C)[C@@H](O)[C@]1(C)O [Compound 13]	11%

We now examine a further compound.
Return reported inhibition at 10 µM. Input compound: CC[C@H]1OC(=O)[C@H](C)[C@@H](O[C@H]2C[C@@](C)(OC)[C@@H](O)[C@H](C)O2)[C@H](C)[C@@H](O[C@@H]2O[C@H](C)C[C@H](N(C)C)[C@H]2O)[C@](C)(O)C[C@@H](C)CN(C(=S)Nc2ccccc2F)[C@H](C)[C@@H](O)[C@]1(C)O [Compound 5]
0%

###

Please go through the items and note down their inhibition at 12.5 µM.
tested on: human granulocytes; assay: Oxidative burst inhibition assay on granulocytes (luminol); type: cell-based; details: Homo sapiens; Zymosan stimulated granulocytes, compound 12.5 μM; read-out: % inhibition of Oxidative burst Zymosan
Numbers only, in %.

CC[C@H]1OC(=O)[C@H](C)[C@@H](O[C@H]2C[C@@](C)(OC)[C@@H](O)[C@H](C)O2)[C@H](C)[C@@H](O[C@@H]2O[C@H](C)C[C@H](N(C)C)[C@H]2O)[C@](C)(OC)C[C@@H](C)C(=O)[C@H](C)[C@@H](O)[C@]1(C)O [Clarithromycin, clarithromycin, reference compound]	4

List reported inhibition at 12.5 µM for each of these molecules:
1. CC[C@H]1OC(=O)[C@H](C)[C@@H](O[C@H]2C[C@@](C)(OC)[C@@H](O)[C@H](C)O2)[C@H](C)[C@@H](O[C@@H]2O[C@H](C)C[C@H](N(C)C)[C@H]2O)[C@](C)(O)C[C@@H](C)C(=O)[C@H](C)[C@@H](O)[C@]1(C)O
2. CC[C@H]1OC(=O)[C@H](C)[C@@H](O[C@H]2C[C@@](C)(OC)[C@@H](O)[C@H](C)O2)[C@H](C)[C@@H](O[C@@H]2O[C@H](C)C[C@H](N(C)C)[C@H]2O)[C@](C)(O)C[C@@H](C)CN(C)[C@H](C)[C@@H](O)[C@]1(C)O [Azithromycin, azithromycin, reference compound]
3. CC[C@H]1OC(=O)[C@H](C)[C@@H](O[C@H]2C[C@@](C)(OC)[C@@H](O)[C@H](C)O2)[C@H](C)[C@@H](O[C@@H]2O[C@H](C)C[C@H](N(C)C)[C@H]2O)[C@](C)(O)C[C@@H](C)CN(C(=S)Nc2cccc(C(F)(F)F)c2)[C@H](C)[C@@H](O)[C@]1(C)O

1: 6; 2: 0; 3: 0
